target: T1, recombinant human ROR1 extracellular domain (human, UniProt Q01973 30-406); test: capture filter lift
T1 construct: biotinylated for the filter lifts; also called huROR1-ECD; human ROR1-ECD
T1 sequence (Q01973 30-406 limits assumed): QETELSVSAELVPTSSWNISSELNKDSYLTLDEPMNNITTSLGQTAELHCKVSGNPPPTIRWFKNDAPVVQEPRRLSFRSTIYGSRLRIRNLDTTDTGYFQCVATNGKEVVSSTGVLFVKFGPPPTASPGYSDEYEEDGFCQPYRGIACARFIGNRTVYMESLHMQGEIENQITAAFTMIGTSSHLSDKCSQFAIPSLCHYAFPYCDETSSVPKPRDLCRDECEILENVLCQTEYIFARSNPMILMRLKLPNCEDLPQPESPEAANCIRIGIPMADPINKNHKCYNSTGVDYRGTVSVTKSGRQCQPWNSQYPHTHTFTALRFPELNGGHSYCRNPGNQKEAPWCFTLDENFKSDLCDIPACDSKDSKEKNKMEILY

binder: Ab1 Fab variant L3 E111I (Fab, V domains shown, Fab) VH: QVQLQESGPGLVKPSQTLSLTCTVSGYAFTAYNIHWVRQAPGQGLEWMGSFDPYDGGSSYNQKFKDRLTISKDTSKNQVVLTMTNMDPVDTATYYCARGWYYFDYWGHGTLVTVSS VL: DIVMTQTPLSLPVTPGEPASISCRASKSISKYLAWYQQKPGQAPRLLIYSGSTLQSGIPPRFSGSGYGTDFTLTINNIESEDAAYYFCQQHDISPYTFGEGTKVEIK
binding result: binds

binder: Ab1 Fab variant H1 T32D (Fab, V domains shown, Fab) VH: QVQLQESGPGLVKPSQTLSLTCTVSGYAFDAYNIHWVRQAPGQGLEWMGSFDPYDGGSSYNQKFKDRLTISKDTSKNQVVLTMTNMDPVDTATYYCARGWYYFDYWGHGTLVTVSS VL: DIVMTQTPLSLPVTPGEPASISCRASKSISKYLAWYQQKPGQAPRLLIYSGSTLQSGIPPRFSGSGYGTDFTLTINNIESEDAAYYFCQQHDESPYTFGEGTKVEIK
binding result: binds

binder: Ab1 Fab variant H3 Y138V (Fab, V domains shown, Fab) VH: QVQLQESGPGLVKPSQTLSLTCTVSGYAFTAYNIHWVRQAPGQGLEWMGSFDPYDGGSSYNQKFKDRLTISKDTSKNQVVLTMTNMDPVDTATYYCARGWYYFDVWGHGTLVTVSS VL: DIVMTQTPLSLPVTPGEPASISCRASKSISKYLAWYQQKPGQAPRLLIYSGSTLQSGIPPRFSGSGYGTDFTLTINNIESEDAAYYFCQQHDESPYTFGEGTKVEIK
binding result: binds

The origin of these recorded values is patent US20230021388A1.
